Every entry's value here was drawn from ChEMBL document CHEMBL4311936.

# Organism: Homo sapiens
# experiment.notes: Binding affinity to human IgG assessed as dissociation rate constant by SPR analysis
Bridge positions count the residues as written; N and C are the ends. Square brackets hold non-standard residues; d marks the D form. Peptide text beside a SMILES is read from it. ξ: configuration not given here. ξDab = NCCC(N)C(=O)O
measured.property: Kdiss (s⁻¹)
Quick reminder: number only, in s⁻¹, skip the unit.

Looking up CC(=O)N[C@@H](CC(=O)O)C(=O)N[C@H]1CSSC[C@@H](C(=O)N[C@H](C(=O)N[C@@H](Cc2ccccc2)C(=O)NC(CCN)C(N)=O)[C@@H](C)O)NC(=O)[C@H](Cc2c[nH]c3ccccc23)NC(=O)[C@H](C(C)C)NC(=O)[C@H](CC(C)C)NC(=O)[C@H](CCC(=O)O)NC(=O)CNC(=O)[C@H](CCCCN)NC(=O)[C@H](Cc2cnc[nH]2)NC(=O)[C@H](Cc2ccc(O)cc2)NC(=O)[C@H](C)NC1=O (stereo partly specified) (Ac-DCAYHKGELVWCTF[ξDab]-NH2; disulfide 2-12) , I see its Kdiss listed as 0.749

====

# experiment.notes: Binding affinity to human IgG assessed as dissociation constant by SPR analysis
Bridge positions count the residues as written; N and C are the ends. Peptide text beside a SMILES is read from it.
Documented Kd across a set of compounds

compound: CC(=O)N[C@@H](CC(=O)O)C(=O)N[C@H]1CSSC[C@@H](C(=O)N[C@H](C(=O)N[C@@H](Cc2ccccc2)C(=O)NC(Cc2ccccn2)C(=O)O)[C@@H](C)O)NC(=O)[C@H](Cc2c[nH]c3ccccc23)NC(=O)[C@H](C(C)C)NC(=O)[C@H](CC(C)C)NC(=O)[C@H](CCC(=O)O)NC(=O)CNC(=O)[C@H](CCCCN)NC(=O)[C@H](Cc2cnc[nH]2)NC(=O)[C@H](Cc2ccc(O)cc2)NC(=O)[C@H](C)NC1=O (mixture of isomers)
value: 97.6 nM

Consider the additional compound presented here.
Looking up CC(=O)N[C@@H](CC(=O)O)C(=O)N[C@H]1CSSC[C@@H](C(=O)N[C@H](C(=O)N[C@@H](Cc2ccccc2)C(=O)N[C@@H](Cc2cnc[nH]2)C(=O)NCC(N)=O)[C@@H](C)O)NC(=O)[C@H](Cc2c[nH]c3ccccc23)NC(=O)[C@H](C(C)C)NC(=O)[C@H](CC(C)C)NC(=O)[C@H](CCC(=O)O)NC(=O)CNC(=O)[C@H](CCCCN)NC(=O)[C@H](Cc2cnc[nH]2)NC(=O)[C@H](Cc2ccc(O)cc2)NC(=O)[C@H](C)NC1=O (Ac-DCAYHKGELVWCTFHG-NH2; disulfide 2-12) , I see its Kd listed as 338 nM

====

# Species: Homo sapiens
# experiment.notes: Binding affinity to human IgG assessed as association rate constant by SPR analysis
Bridge positions count the residues as written; N and C are the ends. Square brackets hold non-standard residues; d marks the D form. Peptide text beside a SMILES is read from it. ξ: configuration not given here. ξ2Pal = NC(Cc1ccccn1)C(=O)O; ξ3Pal = NC(Cc1cccnc1)C(=O)O; ξ4Pal = NC(Cc1ccncc1)C(=O)O; ξDab = NCCC(N)C(=O)O
measured.property: Ka (M⁻¹ s⁻¹)
Quick reminder: number only, in M⁻¹ s⁻¹, skip the unit.

compound: CC(=O)N[C@@H](CC(=O)O)C(=O)N[C@H]1CSSC[C@@H](C(=O)N[C@H](C(=O)N[C@@H](Cc2ccccc2)C(=O)NC(CCN)C(N)=O)[C@@H](C)O)NC(=O)[C@H](Cc2c[nH]c3ccccc23)NC(=O)[C@H](C(C)C)NC(=O)[C@H](CC(C)C)NC(=O)[C@H](CCC(=O)O)NC(=O)CNC(=O)[C@H](CCCCN)NC(=O)[C@H](Cc2cnc[nH]2)NC(=O)[C@H](Cc2ccc(O)cc2)NC(=O)[C@H](C)NC1=O (some centres undefined) (Ac-DCAYHKGELVWCTF[ξDab]-NH2; disulfide 2-12)
Ka (M⁻¹ s⁻¹): 731000
--
compound: CC(=O)N[C@@H](CC(=O)O)C(=O)N[C@H]1CSSC[C@@H](C(=O)N[C@H](C(=O)N[C@@H](Cc2ccccc2)C(=O)NC(Cc2ccncc2)C(N)=O)[C@@H](C)O)NC(=O)[C@H](Cc2c[nH]c3ccccc23)NC(=O)[C@H](C(C)C)NC(=O)[C@H](CC(C)C)NC(=O)[C@H](CCC(=O)O)NC(=O)CNC(=O)[C@H](CCCCN)NC(=O)[C@H](Cc2cnc[nH]2)NC(=O)[C@H](Cc2ccc(O)cc2)NC(=O)[C@H](C)NC1=O (some centres undefined) (Ac-DCAYHKGELVWCTF[ξ4Pal]-NH2; disulfide 2-12)
Ka (M⁻¹ s⁻¹): 730000
--
compound: CC(=O)N[C@@H](CC(=O)O)C(=O)N[C@H]1CSSC[C@@H](C(=O)N[C@H](C(=O)N[C@@H](Cc2ccccc2)C(=O)N[C@@H](Cc2cnc[nH]2)C(=O)NCC(N)=O)[C@@H](C)O)NC(=O)[C@H](Cc2c[nH]c3ccccc23)NC(=O)[C@H](C(C)C)NC(=O)[C@H](CC(C)C)NC(=O)[C@H](CCC(=O)O)NC(=O)CNC(=O)[C@H](CCCCN)NC(=O)[C@H](Cc2cnc[nH]2)NC(=O)[C@H](Cc2ccc(O)cc2)NC(=O)[C@H](C)NC1=O (Ac-DCAYHKGELVWCTFHG-NH2; disulfide 2-12)
Ka (M⁻¹ s⁻¹): 615000
--
compound: CC(=O)N[C@@H](CC(=O)O)C(=O)N[C@H]1CSSC[C@@H](C(=O)N[C@H](C(=O)N[C@@H](Cc2ccccc2)C(=O)N[C@@H](Cc2ccccc2)C(N)=O)[C@@H](C)O)NC(=O)[C@H](Cc2c[nH]c3ccccc23)NC(=O)[C@H](C(C)C)NC(=O)[C@H](CC(C)C)NC(=O)[C@H](CCC(=O)O)NC(=O)CNC(=O)[C@H](CCCCN)NC(=O)[C@H](Cc2cnc[nH]2)NC(=O)[C@H](Cc2ccc(O)cc2)NC(=O)[C@H](C)NC1=O (Ac-DCAYHKGELVWCTFF-NH2; disulfide 2-12)
Ka (M⁻¹ s⁻¹): 713000
--
compound: CC(=O)N[C@@H](CC(=O)O)C(=O)N[C@H]1CSSC[C@@H](C(=O)N[C@H](C(=O)N[C@@H](Cc2ccccc2)C(=O)N[C@@H](C)C(N)=O)[C@@H](C)O)NC(=O)[C@H](Cc2c[nH]c3ccccc23)NC(=O)[C@H](C(C)C)NC(=O)[C@H](CC(C)C)NC(=O)[C@H](CCC(=O)O)NC(=O)CNC(=O)[C@H](CCCCN)NC(=O)[C@H](Cc2cnc[nH]2)NC(=O)[C@H](Cc2ccc(O)cc2)NC(=O)[C@H](C)NC1=O (Ac-DCAYHKGELVWCTFA-NH2; disulfide 2-12)
Ka (M⁻¹ s⁻¹): 567000

Looking up CC(=O)N[C@@H](CC(=O)O)C(=O)N[C@H]1CSSC[C@@H](C(=O)N[C@H](C(=O)N[C@@H](Cc2ccccc2)C(=O)N[C@H](Cc2ccccn2)C(N)=O)[C@@H](C)O)NC(=O)[C@H](Cc2c[nH]c3ccccc23)NC(=O)[C@H](C(C)C)NC(=O)[C@H](CC(C)C)NC(=O)[C@H](CCC(=O)O)NC(=O)CNC(=O)[C@H](CCCCN)NC(=O)[C@H](Cc2cnc[nH]2)NC(=O)[C@H](Cc2ccc(O)cc2)NC(=O)[C@H](C)NC1=O , I see its Ka listed as 593000

Looking up CC(=O)N[C@@H](CC(=O)O)C(=O)N[C@H]1CSSC[C@@H](C(=O)N[C@H](C(=O)N[C@@H](Cc2ccccc2)C(=O)NC(Cc2ccccn2)C(=O)O)[C@@H](C)O)NC(=O)[C@H](Cc2c[nH]c3ccccc23)NC(=O)[C@H](C(C)C)NC(=O)[C@H](CC(C)C)NC(=O)[C@H](CCC(=O)O)NC(=O)CNC(=O)[C@H](CC(C)C)NC(=O)[C@H](Cc2cnc[nH]2)NC(=O)[C@H](Cc2ccc(O)cc2)NC(=O)[C@H](C)NC1=O (some centres undefined) (Ac-DCAYHLGELVWCTF[ξ2Pal]-OH; disulfide 2-12) , I see its Ka listed as 1.35e+06

Looking up CC(=O)N[C@@H](CC(=O)O)C(=O)N[C@H]1CSSC[C@@H](C(=O)N[C@H](C(=O)N[C@@H](Cc2ccccc2)C(=O)NC(Cc2cccnc2)C(N)=O)[C@@H](C)O)NC(=O)[C@H](Cc2c[nH]c3ccccc23)NC(=O)[C@H](C(C)C)NC(=O)[C@H](CC(C)C)NC(=O)[C@H](CCC(=O)O)NC(=O)CNC(=O)[C@H](CCCCN)NC(=O)[C@H](Cc2cnc[nH]2)NC(=O)[C@H](Cc2ccc(O)cc2)NC(=O)[C@H](C)NC1=O (some centres undefined) (Ac-DCAYHKGELVWCTF[ξ3Pal]-NH2; disulfide 2-12) , I see its Ka listed as 772000

Looking up CC(=O)N[C@@H](CC(=O)O)C(=O)N[C@H]1CSSC[C@@H](C(=O)N[C@H](C(=O)N[C@@H](Cc2ccccc2)C(=O)NC(Cc2ccccn2)C(=O)O)[C@@H](C)O)NC(=O)[C@H](Cc2c[nH]c3ccccc23)NC(=O)[C@H](C(C)C)NC(=O)[C@H](CC(C)C)NC(=O)[C@H](CCC(=O)O)NC(=O)CNC(=O)[C@H](CCCCN)NC(=O)[C@H](Cc2cnc[nH]2)NC(=O)[C@H](Cc2ccc(O)cc2)NC(=O)[C@H](C)NC1=O (mixture of isomers) , I see its Ka listed as 690000
